- assay.system: COX-2 (Homo sapiens, UniProt P35354)
- Construct: purchased Sigma-Aldrich
- Sequence (P35354 18-604): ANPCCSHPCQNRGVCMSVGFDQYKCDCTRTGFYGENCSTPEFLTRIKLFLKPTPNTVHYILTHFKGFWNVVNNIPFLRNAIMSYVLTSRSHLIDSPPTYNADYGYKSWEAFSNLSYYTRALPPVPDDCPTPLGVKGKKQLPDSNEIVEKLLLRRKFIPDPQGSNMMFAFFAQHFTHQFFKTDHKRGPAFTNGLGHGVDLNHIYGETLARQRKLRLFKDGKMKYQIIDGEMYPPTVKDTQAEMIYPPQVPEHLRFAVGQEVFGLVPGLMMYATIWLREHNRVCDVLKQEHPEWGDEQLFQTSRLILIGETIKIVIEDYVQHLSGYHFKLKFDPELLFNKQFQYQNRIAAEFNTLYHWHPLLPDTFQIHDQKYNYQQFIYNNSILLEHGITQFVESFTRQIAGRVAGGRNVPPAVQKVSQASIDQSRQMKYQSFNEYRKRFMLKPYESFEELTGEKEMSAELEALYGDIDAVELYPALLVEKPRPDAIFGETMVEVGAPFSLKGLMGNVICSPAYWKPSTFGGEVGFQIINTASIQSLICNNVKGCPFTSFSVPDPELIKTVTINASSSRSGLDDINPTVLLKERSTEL
- procedure.text: Inhibition of cyclooxygenase 2 (spectrophotometric, TMPD)
- Format: biochemical
observable: IC50 (µM)
The reply should be a number in µM, with the unit left off.

Just so you know, measured IC50 for O=c1c(O)c(-c2ccc(O)c(O)c2)oc2cc(O)cc(O)c12 [Quercetin, 3,3′,4′,5,7-pentahydroxyflavone] came out at 17

###

Target chain: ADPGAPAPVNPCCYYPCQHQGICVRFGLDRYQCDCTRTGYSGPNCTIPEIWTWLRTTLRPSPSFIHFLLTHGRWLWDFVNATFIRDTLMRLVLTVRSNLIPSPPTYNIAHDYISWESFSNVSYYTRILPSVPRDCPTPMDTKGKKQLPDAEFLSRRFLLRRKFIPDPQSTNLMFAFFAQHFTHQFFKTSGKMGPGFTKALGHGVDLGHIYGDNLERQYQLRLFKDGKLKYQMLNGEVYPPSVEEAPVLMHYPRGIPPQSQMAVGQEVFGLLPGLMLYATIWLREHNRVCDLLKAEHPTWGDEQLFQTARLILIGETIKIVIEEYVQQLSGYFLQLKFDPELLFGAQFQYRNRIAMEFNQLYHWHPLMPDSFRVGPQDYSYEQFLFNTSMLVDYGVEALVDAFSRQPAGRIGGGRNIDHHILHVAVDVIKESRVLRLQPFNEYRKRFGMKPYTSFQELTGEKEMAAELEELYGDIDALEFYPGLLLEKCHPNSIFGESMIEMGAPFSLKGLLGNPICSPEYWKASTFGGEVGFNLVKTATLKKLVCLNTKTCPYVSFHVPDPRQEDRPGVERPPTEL
observable: pIC50
To interpret pIC50, take it as minus log10 of a concentration measured in moles per litre.

// O=c1c(O)c(-c2ccc(O)c(O)c2)oc2cc(O)cc(O)c12 [Quercetin, 3,3′,4′,5,7-pentahydroxyflavone] : pIC50 value = 4.80
